# System: NCI/ADR-RES ovarian
# methodDescription: NCI-60 one-dose screen, 48 h (100 = growth as untreated, 0 = no growth, -100 = all killed)
# appliedConditions: 10 µM unless noted
The panel holds about 83,000 compounds, 20% with a hit somewhere; the sample as a whole holds those more often.
parameterMeasured: growth (%)
The answer is to be given in %; state only the numeric part.

Query block: Need growth of "CCOC(=O)c1csc(NC(=O)COc2ccc(/C=C3\Oc4ccccc4C3=O)cc2)n1" , thanks.
Result block: 85.4

Query block: Need growth of "CN1CCN(c2cc(Nc3cc(C4CC4)[nH]n3)nc(Nc3ccc(CC(=O)NCc4cccc(F)c4)cc3)n2)CC1" , thanks.
Result block: 94.4

Query block: Need growth of "NC(=O)c1ccc(-c2c3ccccc3cc3c2ccc2ccccc23)cc1" , thanks.
Result block: 16.6

Query block: Need growth of "C#CCOc1cccc(Nc2ncnc3cc(NC(=O)C=C)ccc23)c1" , thanks.
Result block: 14.9

Query block: Need growth of "O=C(COc1ccc(-c2nc3cc(Cl)c(Cl)cc3[nH]2)cc1)N=Nc1c(O)[nH]c2ccc(Cl)cc12" , thanks.
Result block: 95.8
